Recorded measurements of log10 of IC50, one per entry
Organism: Rattus norvegicus
method_notes: Compound was tested for the inhibition of cholesterol biosynthesis from [14C]- acetate in freshly isolated rat hepatocytes
Assay type: functional
condition_context: Hepatocyte, read-out: I50
// stored as log10 of IC50 expressed in µM

CC(C)=CCC/C(C)=C/CC/C(C)=C/COP(=O)(O)CC(=O)O: 2.44
CCOC(=O)P(=O)(O)OCC/C=C(\C)CC/C=C(\C)CCC=C(C)C: 0.95
CC(C)=CCC/C(C)=C/CC/C(C)=C/CCP(=O)([O-])CC(=O)[O-].[K+].[K+]: 1.85
CC(C)=CCC/C(C)=C/CC/C(C)=C/CCP(=O)([O-])C(=O)[O-].[Na+].[Na+]: 0.76
CC(C)=CCC/C(C)=C/CC/C(C)=C/CCCP(=O)([O-])C(=O)[O-].[Na+].[Na+]: 1.48
CCOC(=O)P(=O)(O)CCC/C=C(\C)CC/C=C(\C)CCC=C(C)C: 1.38

Proceeding to the next compound to report its log10 of IC50.
Tell me the measured log10 of IC50 of CC(C)=CCC/C(C)=C/CC/C(C)=C/CCOP(=O)([O-])C(=O)[O-].[Na+].[Na+] , please.
0.78
